All values here come from the array DNA melting data of Ke et al. (doi:10.1101/2024.01.08.574731).

# Assay notes: melting temperature; fluorescence melt of hairpins on a sequencing array, two-state fit, raised by 9.35 °C to match UV melts
# Experimental context: sodium 0.088 M
Note to self: class labels come from recorded Tm, ranges listed here: low interval (below 40 °C), middle interval (40 °C to below 50 °C), high interval (50 °C or more)

Here are 8 sequences together with their reported answers.
Exam item: For GCTATGCGAAAGCATCGC ((.((((....)))).)) , which Tm bin applies?
Marked response: high interval

Exam item: In plain terms, what class is GTAGTTCGAAAGAAGTAC (((.(((....))).))) ?
Marked response: middle interval

Exam item: Tag the class for GGGATTACGAAAGTACCC (((..(((....))))))
Marked response: low interval

Exam item: Categorize the following entry: GCCTGGCGAAAGCGACGC ((.(.((....)).).))
Marked response: low interval

Exam item: Given GATTCCCGAAAGGGTATC (((.(((....))).))) , name the class its Tm places it in.
Marked response: middle interval

Exam item: Band assignment needed for GGGGTCGAAAGACTGCCC ((((((....)))..))) please.
Marked response: middle interval

Exam item: Hey, which category is GCGCTAGGAAACCAACGC (((.(.(....).).))) in, do you know?
Marked response: low interval

Exam item: Kindly state the category for this sequence: GTCACTGCGAAAGCAGAC (((..(((....))))))
Marked response: low interval

New cases:
Exam item: Entry GCCACGCGAAAGCCGGGC (((..((....))..))) belongs to which category?
Marked response: high interval

Exam item: Sort into band: GCATCGCGAAAGCTTTGC (((..((....))..)))
Marked response: middle interval

Exam item: Band for the recorded Tm of GCGTGCGAAAGCATACGC ((((((....)))..))) ?
Marked response: high interval

Exam item: Tag the class for GCGTGCGAAAGCAGCCGC ((((((....)))..)))
Marked response: high interval

Exam item: For GCGCCGCGAAAGCTGGGC ((.(.((....)).).)) , which Tm bin applies?
Marked response: high interval

---

For each record, write down the corresponding folding enthalpy.
# Assay notes: folding enthalpy; higher = less favourable; fluorescence melt of hairpins on a sequencing array, two-state fit
# Experimental context: sodium 0.088 M
Numbers only, in kcal/mol.

Please review the entries below; each comes with its answer.
Exam item: Give folding enthalpy for the following sequence: GCGGAACGAAAGTTCGC (((.(((....))))))
Marked response: -24.4

Exam item: Note folding enthalpy for the sequence shown: GGCCGGGGAAACCCGGTC (.(((((....))))).)
Marked response: -24.6

Exam item: Please report folding enthalpy for the following sequence: GGATCCGGAAACGGGTCC (((.(((....))).)))
Marked response: -43.7

Provide each entry's folding enthalpy from the list below.
1. GCGGTCGAAAGACAGCGC ((((((....)))..)))
2. GGCAGCGAAAGCTGGGCC ((((((....)))..)))
3. GGTCTCCGAAAGGAAACC (((.(((....))).)))
4. GATCTTACGAAGATC ((((((...))))))
5. GATCAACTACTTGATC ((((((....))))))
6. GCCGTCGGAAACGGTGGC (((..((....))..)))

Marked response:
[-27.7, -13.1, -29.2, -34.6, -32.5, -22]

---

# Assay notes: folding enthalpy; higher = less favourable; fluorescence melt of hairpins on a sequencing array, two-state fit
# Experimental context: sodium 0.088 M
I'd appreciate it if you could supply folding enthalpy values for the items below.
Give bare numbers, in kcal/mol.

Please state, for each entry, its recorded folding enthalpy.
1. GATATCGGAAACGATGTC ((.((((....)))).))
2. GTGCCAGGAAACTGGTAC ((.((((....)))).))
3. GATCCACTATGGATC ((((((...))))))

Marked response:
1. -30.7
2. -29.9
3. -30.6

---

# Assay notes: melting temperature; fluorescence melt of hairpins on a sequencing array, two-state fit, raised by 9.35 °C to match UV melts
# Experimental context: sodium 0.088 M
Observed property: Tm
Provide a numeric answer, followed by its unit.

Recorded Tm, per entry:
Exam item: Write down Tm measured for item GTGCGCGAAAGCGCTCAC ((((((....)))..)))
Marked response: 40.4 °C

Exam item: Check the records and state Tm for ACGGAGAAATCCGT (((((....)))))
Marked response: 49.2 °C

Exam item: Given the sequence GCGCAGCGAAAGCAACGC (((..((....))..))) , write its reported Tm.
Marked response: 49.6 °C

Lab note: each sequence below needs its Tm filled in.
1. GGCATAGGAAACTACGCC (((.(((....))).)))
2. GCTTTGCGAAAGCCTAGC (((..((....))..)))
3. GATCCACGTCTGGATC ((((((....))))))
4. GCGAGCGTTCGC ((((....))))

Marked response:
["41.1 °C", "41.1 °C", "49.5 °C", "49 °C"]

---

Assign folding enthalpy to each entry below.
# Assay notes: folding enthalpy; higher = less favourable; fluorescence melt of hairpins on a sequencing array, two-state fit
# Experimental context: sodium 0.088 M
Numbers only, in kcal/mol.

// solved cases for folding enthalpy follow
Exam item: For GCCGTGGGAAACCACAGC ((.((((....)))).)) , write its folding enthalpy.
Marked response: -18.6

Exam item: Check the records and state folding enthalpy for GATCTGTCTCCAGATC ((((((....))))))
Marked response: -45.9

Exam item: Supply reported folding enthalpy belonging to this sequence: GCGAGTGGAAACACTCAC (.(((((....))))).)
Marked response: -14

Exam item: Specify folding enthalpy for GATCACCCAAGTGATC ((((((....)))))) and stop.
Marked response: -46.8

Exam item: Identify measured folding enthalpy associated with GACGGGGAAACCCGTC ((((((....))))))
Marked response: -37.9

Exam item: Fill in folding enthalpy for record GTACGCCGAAAGGCATAC (((.(((....))).)))
Marked response: -16.4

# evaluate next
Exam item: For the sequence GACTTAGGAAACTAAGTC (((((((....))))))) , report folding enthalpy.
Marked response: -37.3

---

# Assay notes: melting temperature; fluorescence melt of hairpins on a sequencing array, two-state fit, raised by 9.35 °C to match UV melts
# Experimental context: sodium 0.088 M
Classes based on Tm: zone 1: < 40 °C; zone 2: ≥ 40 °C and < 50 °C; zone 3: ≥ 50 °C

Exam item: Which bin should I file GGATCGCGAAAGCGCTCC (((.(((....))).))) under?
Marked response: zone 3

Exam item: Returns: class label. Input: GGTCATCGAAAGATACC (((.(((....))))))
Marked response: zone 1

Exam item: // return the class label for GGAGGAGGAAACTCCTCC (((((((....)))))))
Marked response: zone 3

Exam item: Band assignment needed for GACGGCGAAAGCCGGTC ((((((....))).))) please.
Marked response: zone 3

Exam item: Quick check: band for GATCTGAACCCAGATC ((((((....))))))
Marked response: zone 2

Further cases:
Exam item: Hey, which category is GAGGAGCCGAAAGGCCTC (((..(((....)))))) in, do you know?
Marked response: zone 2

Exam item: Band for CATGGGAAACCATG (((((....))))) ?
Marked response: zone 2

Exam item: Please indicate the class for GATCTGGACCCAGATC ((((((....)))))) based on its Tm.
Marked response: zone 3

Exam item: assign GATCCGCATTCGGATC ((((((....)))))) to the correct category.
Marked response: zone 3

Exam item: Assign a category based on measured Tm for GATCTTCACAAGATC ((((((...)))))) and give only the class name.
Marked response: zone 2

Exam item: Consider GTCATCCGAAAGGAGAC (((.(((....)))))) . To which Tm class does it belong?
Marked response: zone 2

Exam item: Record GATCTATCGTTAGATC ((((((....)))))) — which class?
Marked response: zone 1

Exam item: For GCTGTCGAAAGACATAGC ((((((....)))..))) , which Tm bin applies?
Marked response: zone 2

Exam item: Assign a category based on measured Tm for GCACGCCGAAAGGCTTGC (((.(((....))).))) and give only the class name.
Marked response: zone 3

---

Record form. Attribute: Tm. Fill in for each entry.
# Assay notes: melting temperature; fluorescence melt of hairpins on a sequencing array, two-state fit, raised by 9.35 °C to match UV melts
# Experimental context: sodium 0.088 M
Could you kindly put the unit after your number?

Exam item: Retrieve Tm measured for GGTACAGGAAACTGTGCC ((.((((....)))).)) and print it.
Marked response: 52.6 °C

// batch mode: one Tm value per listed entry
1. GCCGCCGAAAGGCTTGGC ((((((....)))..)))
2. GCCTTCGGAAACGAAGAC (.(((((....))))).)
3. GATCCCGTGGGGGATC ((((((....))))))
4. GCGCTCGAAAGAGACCGC ((((((....)))..)))
5. GCACGCCGAAAGGCTGC (((.(((....))))))
6. GAACAAGGAAACTTGTTC (((((((....)))))))
7. GAAAGCGAAAGCTCATTC ((((((....)))..)))

Marked response:
1: 54.5 °C; 2: 43.3 °C; 3: 60 °C; 4: 44.9 °C; 5: 64.6 °C; 6: 53 °C; 7: 23.9 °C
